Every entry's value here was drawn from paper PMC10757926.

Reported values of Kd for individual entries
- study-target: biotinylated recombinant hSIRPα (extracellular portion) (human, UniProt P78324 31-373, biotin (Sulfo-NHS-LC-LC-Biotin))
- Sequence (P78324 31-373): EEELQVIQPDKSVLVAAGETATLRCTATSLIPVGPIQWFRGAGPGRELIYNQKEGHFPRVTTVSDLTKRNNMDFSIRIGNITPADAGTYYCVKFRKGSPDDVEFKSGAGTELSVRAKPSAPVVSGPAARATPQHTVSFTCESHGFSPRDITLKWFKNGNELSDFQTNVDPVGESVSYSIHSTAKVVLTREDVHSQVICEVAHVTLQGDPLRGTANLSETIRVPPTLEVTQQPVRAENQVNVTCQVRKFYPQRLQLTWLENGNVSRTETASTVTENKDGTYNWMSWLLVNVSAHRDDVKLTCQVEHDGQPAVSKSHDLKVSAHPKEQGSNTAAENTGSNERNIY
- method-summary: BLI

Check out these entries, answers already filled in.
hSIRPα-S36 Nb (VHH) VHH: EVQLVESGGGLVQPGGSLRLSCAASGFTLDYYAIGWFRQVPGKEREGVSCISSDGGGNTYYADSVKGRFTISRDNAKNTVYLQMNSLKPEDSAVYSCAAGPTYYSGSYCRDPHSDYDYWGQGTQVTVSS :: 0.12 nM
hSIRPα Nb S44 (VHH) VHH: QVQLQESGGGLVQPGGSLRLACAASGFTFSSYDMSWVRQAPGKGLEWVSDIKSGGGRTYYADSVKGRFTISRDNAKNTVYLQMNSLKPEDTAVYYCGSLDNSGAYTGGGQGSQVTVSS :: 4.61 nM

Task: Reported Kd, binder hSIRPα Nb S21 (VHH) VHH: DVQLVESGGGLVQPGGSLTLSCAASGFTSGTYALAYFRQAPGKEREGVSCISNDGGSRNYADSVKGRFTISRDNAKNTMYLQMNSLKPEDTAVYYCAAGPWYYCSDFARRPDGMDYWGKGTPVTVSS : ____
Output: 2.56 nM

Task: Reported Kd, binder hSIRPα Nb S7 (VHH) VHH: HVQLVESGGGLVQVGDSLRLSCAPSGRTFRAYAMAWFRQAPGKEREFVAAIRWIGGTPSYKDSVKGRFTISRDNARNTFYLQMNSLEPQDTGVYYCAAEETQKGSGLGHDGRHYDYWGQGTPVTVSS : ____
Output: 20 nM
